Test system: HepaRG
Protocol Description: LDH release cytotoxicity, % of total lysis control; higher = more cytotoxic
Study Conditions: 1 µM; 48 h
Quick list: LDH release cytotoxicity per entry.
Just the number in %, nothing appended.

Below, each entry is followed by its recorded LDH release cytotoxicity result.
{"Compound": "CCSC(=O)N(CC(C)C)CC(C)C [Butylate]", "Value Units": "%", "LDH release cytotoxicity": -1.26}
{"Compound": "Nc1ccc(Oc2ccc(N)cc2)cc1", "Value Units": "%", "LDH release cytotoxicity": -2.52}
{"Compound": "Fc1ccc(Oc2ccnc3cc(Cl)cc(Cl)c23)cc1", "Value Units": "%", "LDH release cytotoxicity": -0.911}
{"Compound": "Oc1cc(Cl)c(Cl)cc1Cl", "Value Units": "%", "LDH release cytotoxicity": -1.77}

Consider the additional compound presented here.
Qu. Report LDH release cytotoxicity for CNCc1ccc(NC(=O)c2c[nH]c3c2C(=O)CCC3)cc1 please.
Ans. -1.23

---

Test system: HepaRG
Protocol Description: LDH release cytotoxicity, % of total lysis control; higher = more cytotoxic
Study Conditions: 3.16228 µM; 48 h
Quick list: LDH release cytotoxicity per entry.
Quick note: unit goes after the number.

{"Compound": "COc1ccc2sc(C(=O)Nc3nnn[nH]3)c(OC(C)C)c2c1 [CI-959]", "Observed Measurement": "-2.51%"}
{"Compound": "CCC(C)(C)C(=O)OC1=C(c2ccc(Cl)cc2Cl)C(=O)OC12CCCCC2 [Spirodiclofen]", "Observed Measurement": "-1.74%"}
{"Compound": "CN1COCN(Cc2cnc(Cl)s2)C1=N[N+](=O)[O-] [Thiamethoxam]", "Observed Measurement": "-1.49%"}
{"Compound": "O=[N+]([O-])c1c(Cl)c(Cl)c(Cl)c(Cl)c1Cl [Pentachloronitrobenzene]", "Observed Measurement": "-0.822%"}
{"Compound": "O=C(c1ccc(O)cc1O)c1ccc(O)cc1O [2,2',4,4'-Tetrahydroxybenzophenone]", "Observed Measurement": "-2.25%"}
{"Compound": "CC(C)C1(C)N=C(c2ncccc2C(=O)O)NC1=O (centres undefined) [Imazapyr]", "Observed Measurement": "-0.897%"}
{"Compound": "O=C(O)C(F)(F)C(F)(F)C(F)(F)C(F)(F)C(F)(F)C(F)(F)C(F)(F)F [Ammonium perfluorooctanoate]", "Observed Measurement": "-1.55%"}
{"Compound": "O=C(O)C(Cl)(Cl)Cl [Trichloroacetic acid]", "Observed Measurement": "-2.74%"}

Consider the additional compound presented here.
Qu. Report LDH release cytotoxicity for Cc1c(-c2cccnc2)c2ccccc2n1CCCCC(=O)O please.
Ans. -1.67%

---

Tested on: HepaRG
Protocol Description: LDH release cytotoxicity, % of total lysis control; higher = more cytotoxic
Study Conditions: 31.6228 µM; 48 h
Experimental Endpoint: LDH release cytotoxicity (%)
Just the number in %, nothing appended.

Below, each entry is followed by its recorded LDH release cytotoxicity result.
{"Compound": "CCNc1cccc(C)c1", "LDH release cytotoxicity / %": -0.424}
{"Compound": "Cc1c2ccccc2c(C)c2c1ccc1ccccc12", "LDH release cytotoxicity / %": 1.86}
{"Compound": "COC(=O)CCCCC(=O)OC [Dimethyl adipate]", "LDH release cytotoxicity / %": -0.702}
{"Compound": "O=C(Oc1ccc(Br)cc1)N1CCN2CCC1CC2", "LDH release cytotoxicity / %": -0.718}
{"Compound": "C[N+]1(C)CCCCC1 [1,1-Dimethylpiperidinium chloride]", "LDH release cytotoxicity / %": -0.465}

Qu. Report LDH release cytotoxicity for O=C1OC(=O)C2C3C=CC(C3)C12 (stereo not given) [2-Norbornene-5,6-dicarboxylic anhydride] please.
Ans. -0.266

Qu. Report LDH release cytotoxicity for Cc1nc(-c2ccc3c(c2)CCN(CCC2CCC(NC(=O)C=Cc4ccc(F)cc4)CC2)CC3)no1 (stereo not given) please.
Ans. -0.793

Qu. Report LDH release cytotoxicity for CC(=O)C1C(=O)C=C(C)OC1=O (stereo not given) [Sodium dehydroacetate] please.
Ans. -0.728

---

Tested on: HepaRG
Protocol Description: LDH release cytotoxicity, % of total lysis control; higher = more cytotoxic
Study Conditions: 100 µM; 48 h
Experimental Endpoint: LDH release cytotoxicity

{"Compound": "CCc1ccc(O)c(C(C)(C)C)c1", "Observed Measurement": "0.703%"}
{"Compound": "CC(COc1ccc(Oc2ccccc2)cc1)Oc1ccccn1 (stereo not given)", "Observed Measurement": "1.18%"}
{"Compound": "O=C(O)C(Cl)Cl", "Observed Measurement": "0.0869%"}
{"Compound": "O=S(=O)(O)C(F)(F)C(F)(F)C(F)(F)C(F)(F)C(F)(F)C(F)(F)C(F)(F)C(F)(F)F", "Observed Measurement": "19.6%"}

Consider the additional compound presented here.
Qu. Report LDH release cytotoxicity for CC(=O)CC(c1ccccc1)C1C(=O)Oc2ccccc2C1=O (stereo not given) please.
Ans. 2.56%

---

Test system: HepaRG
Protocol Description: LDH release cytotoxicity, % of total lysis control; higher = more cytotoxic
Study Conditions: 10 µM; 48 h
Experimental Endpoint: LDH release cytotoxicity (%)
Just the number in %, nothing appended.

Below, each entry is followed by its recorded LDH release cytotoxicity result.
{"Compound": "CSC(C)=NOC(=O)N(C)SN(C)C(=O)ON=C(C)SC", "LDH release cytotoxicity, %": 1.07}
{"Compound": "O=C(NC(Cc1ccccc1)C(O)C(=O)N1CC(O)C(O)C1)c1cc2cc(Cl)ccc2[nH]1 (stereo not given)", "LDH release cytotoxicity, %": -0.896}
{"Compound": "NCC1(Cc2noc(=O)[nH]2)CCCCC1", "LDH release cytotoxicity, %": -1.72}
{"Compound": "CC1=CC(=O)CC(C)(C)C1", "LDH release cytotoxicity, %": 1.04}
{"Compound": "O=C1CCC(C2CCCCC2)CC1", "LDH release cytotoxicity, %": 0.479}

Qu. Report LDH release cytotoxicity for CCC(C)(CC)c1cc(NC(=O)c2c(OC)cccc2OC)on1 please.
Ans. -1.64

Qu. Report LDH release cytotoxicity for CCCCCCCC(=O)OC [Methyl octanoate] please.
Ans. -1.1

Qu. Report LDH release cytotoxicity for CCOC(=O)CCC(=O)OCC [Diethyl butanedioate] please.
Ans. -0.384

Qu. Report LDH release cytotoxicity for CC12C=CC(=O)C=C1CCC1C2C(=O)CC2(C)C1CCC2(O)C(=O)CO (stereo not given) please.
Ans. -1.84

Qu. Report LDH release cytotoxicity for NC(=O)Cn1c(=O)cc(CCN2CCN(c3nccc4sccc34)CC2)c2ccc(F)cc21 please.
Ans. -3.23

---

Quick list: LDH release cytotoxicity per entry.
Tested on: HepaRG
Protocol Description: LDH release cytotoxicity, % of total lysis control; higher = more cytotoxic
Study Conditions: 3.16228 µM; 48 h
Where a name gives a salt, the structure may show the parent alone.
Just the number in %, nothing appended.

Below, each entry is followed by its recorded LDH release cytotoxicity result.
{"Compound": "NC(=O)NO [Hydroxyurea]", "Target System": "HepaRG", "Value Units": "%", "LDH release cytotoxicity": -1.83}
{"Compound": "CC12CCC(=O)C=C1CCC1C2C(O)CC2(C)C(C(=O)CO)CCC12 (stereo not given) [Corticosterone]", "Target System": "HepaRG", "Value Units": "%", "LDH release cytotoxicity": -0.76}
{"Compound": "C=CCOC(Cn1ccnc1)c1ccc(Cl)cc1Cl (stereo not given) [Imazalil]", "Target System": "HepaRG", "Value Units": "%", "LDH release cytotoxicity": -0.652}

Qu. Report LDH release cytotoxicity for CC12C=CC(=O)C=C1CCC1C3CC(O)C(O)(C(=O)CO)C3(C)CC(O)C12F (stereo not given) [Triamcinolone] please.
Ans. -0.853

Qu. Report LDH release cytotoxicity for Clc1ccccc1C(c1ccccc1)(c1ccccc1)n1ccnc1 [Clotrimazole] please.
Ans. -0.966

Qu. Report LDH release cytotoxicity for CCCCCCCCOC(=O)c1ccccc1C(=O)OCCCCCCCC [Di-n-octyl phthalate] please.
Ans. -1.1

Qu. Report LDH release cytotoxicity for CCCCCCC(=O)O [Heptanoic acid] please.
Ans. -1.6

Qu. Report LDH release cytotoxicity for CCOP(=S)(OCC)Oc1ccc2c(C)c(Cl)c(=O)oc2c1 [Coumaphos] please.
Ans. -3.28

Qu. Report LDH release cytotoxicity for CC1(C)C(C=C(Cl)Cl)C1C(=O)OCc1cccc(Oc2ccccc2)c1 (stereo not given) [Permethrin] please.
Ans. -1.16

Qu. Report LDH release cytotoxicity for Cc1cc(C)nc(Nc2ccccc2)n1 [Pyrimethanil] please.
Ans. -0.622

Qu. Report LDH release cytotoxicity for CCOc1cccc(C2(N3CCN(c4ccccc4)CC3)CCC(C)CC2)c1 (stereo not given) please.
Ans. -2.22

Qu. Report LDH release cytotoxicity for O=C(O)CC(O)C(=O)O (stereo not given) [Malic acid] please.
Ans. -1.27

Qu. Report LDH release cytotoxicity for Oc1ccc(O)cc1 [Hydroquinone] please.
Ans. -0.483

Qu. Report LDH release cytotoxicity for NCC1(Cc2noc(=O)[nH]2)CCCCC1 please.
Ans. -1.26

Qu. Report LDH release cytotoxicity for O=C(OCCCCCCOC(=O)c1ccccc1)c1ccccc1 [Hexane-1,6-diyl dibenzoate] please.
Ans. -2.28

Qu. Report LDH release cytotoxicity for N#Cc1cccnc1 [3-Pyridinecarbonitrile] please.
Ans. -3.04

Qu. Report LDH release cytotoxicity for CCOCCOCCOCCO [2-[2-(2-Ethoxyethoxy)ethoxy]ethanol] please.
Ans. -2.5

Qu. Report LDH release cytotoxicity for CCC(C)N1C(=O)N=C(C)C(Br)C1=O (stereo not given) [Bromacil] please.
Ans. -3.65

Qu. Report LDH release cytotoxicity for ClC1=C(Cl)C2(Cl)C3C(Cl)C=CC3C1(Cl)C2(Cl)Cl (stereo not given) [Heptachlor] please.
Ans. -2.85

Qu. Report LDH release cytotoxicity for COCCOc1cc2cc(C(=O)NC3CCN(C(C)C)CC3)n(CC(=O)Nc3ccc(Cl)cn3)c2cn1 please.
Ans. -0.955

Qu. Report LDH release cytotoxicity for CCCCCCCCCCCCOS(=O)(=O)O [Sodium dodecyl sulfate] please.
Ans. -1.89

Qu. Report LDH release cytotoxicity for CNCc1cc(F)ccc1Oc1ccc(Cl)c(Cl)c1 please.
Ans. -11.2

Qu. Report LDH release cytotoxicity for Cc1cc(C)c(O)c(C)c1 [2,4,6-Trimethylphenol] please.
Ans. -0.619

Qu. Report LDH release cytotoxicity for c1ccc2c(c1)Cc1ccccc1-2 [Fluorene] please.
Ans. -0.587

Qu. Report LDH release cytotoxicity for CC(C)Oc1cccc(NC(=O)c2ccccc2C(F)(F)F)c1 [Flutolanil] please.
Ans. -1.81
